# procedure_summary: Solubility in H2O
# Assay type: physicochemical
# condition_label: water; H2O, 27° C.

item_smiles | u | solubility
COC1=CC(=O)C=C(OC)C1=O | µg/mL | 74
COc1cc(O)c(SCC(=O)O)c(OC)c1O | µg/mL | 5000

All values here come from patent US4978783A.
